- target system: PKC-ζ (Homo sapiens, UniProt Q05513)
- Sequence (Q05513 1-592): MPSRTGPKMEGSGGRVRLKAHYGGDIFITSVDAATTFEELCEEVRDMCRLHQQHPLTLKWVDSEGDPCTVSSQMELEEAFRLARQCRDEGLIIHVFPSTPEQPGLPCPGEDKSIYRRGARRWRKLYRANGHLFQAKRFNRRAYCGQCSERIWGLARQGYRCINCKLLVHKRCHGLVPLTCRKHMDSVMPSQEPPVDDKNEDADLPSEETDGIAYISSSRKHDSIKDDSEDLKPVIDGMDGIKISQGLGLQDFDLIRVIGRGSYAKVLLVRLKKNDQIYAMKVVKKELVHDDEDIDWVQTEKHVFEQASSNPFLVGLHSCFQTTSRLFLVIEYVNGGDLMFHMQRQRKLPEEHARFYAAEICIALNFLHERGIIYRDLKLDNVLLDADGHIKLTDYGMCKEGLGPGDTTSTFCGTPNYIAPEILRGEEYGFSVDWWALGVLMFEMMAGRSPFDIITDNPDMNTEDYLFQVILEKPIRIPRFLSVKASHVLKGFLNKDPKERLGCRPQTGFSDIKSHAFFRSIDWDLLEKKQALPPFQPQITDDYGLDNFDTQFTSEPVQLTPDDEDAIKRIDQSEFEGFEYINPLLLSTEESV
- assay comment: Competitive binding assay using cell extracts (Western blot)
- Design: cytoplasmic extracts from different cell lines expressing appropriate PKC isoforms; endogenous in cells; host or cells: MDAMB231, LnCAP, Du145, H661, CCD16Lu (human, from ATCC); key: —: no detectable affinity; Low to very low affinity at 10X or 20X or both PRE concentrations in at least one cell line in the cell extract assay; Low affinity in purified isoform assay.; Moderate affinity at 10X or 20X or both PRE concentrations in at least one cell line in the cell extract assay.; High affinity at 10X or 20X or both PRE concentrations in at least one cell line in the cell extract assay; High affinity in purified isoform assay
- condition details: Cell extract; PRE at 10X, 20X antibody concentration; Table 20
metric name: Affinity for PKC isoform ζ

* RRKKGGKDFVVKR [PRE 1] | L
* Ac-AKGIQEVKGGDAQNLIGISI-NH2 [PRE 3] | —
* Ac-RDAQNLI-NH2 [PRE 13] | —
* Ac-RDAQNLIGISI-NH2 [PRE 11] | —
* Ac-ISIGILNQADK-NH2 [PRE 10] | M/L
* Ac-KDAQNLI-NH2 [PRE 12] | M/H
* Ac-KDANQLIGISI-NH2 [PRE 6] | —
